Binary call on melting point with cut-off 100 °C: strictly below means condition met, and equality or higher means condition not met.

Task: Determine whether this compound shows melting point lower than 100 °C (ties excluded): Nc1cc(F)c(F)cc1C(=O)O
Result: condition not met

Task: Determine whether this compound shows melting point lower than 100 °C (ties excluded): Cc1ccccc1NC(=S)Nc1ccccc1C
Result: condition not met

Task: Determine whether this compound shows melting point lower than 100 °C (ties excluded): CCC(Br)=CBr
Result: condition met

Task: Determine whether this compound shows melting point lower than 100 °C (ties excluded): Ic1ccccc1I
Result: condition met

Task: Determine whether this compound shows melting point lower than 100 °C (ties excluded): O=C(O)c1nc(O)n(-c2ccccc2)n1
Result: condition not met

Task: Determine whether this compound shows melting point lower than 100 °C (ties excluded): Cc1ccc(N)c(Cl)c1
Result: condition met

Task: Determine whether this compound shows melting point lower than 100 °C (ties excluded): CC(C(=O)Nc1ccc(F)c(F)c1F)(C(F)(F)F)C(F)(F)F
Result: condition met

Task: Determine whether this compound shows melting point lower than 100 °C (ties excluded): Cc1c([N+](=O)[O-])cc2c(c1[N+](=O)[O-])C(C)(C)CC2(C)C
Result: condition not met

Task: Determine whether this compound shows melting point lower than 100 °C (ties excluded): CCC(C)c1ccccc1 (stereo not given)
Result: condition met

Task: Determine whether this compound shows melting point lower than 100 °C (ties excluded): CCCC(O)CCC=CC=CC#CC#CC=CCO (stereo not given)
Result: condition met

Task: Determine whether this compound shows melting point lower than 100 °C (ties excluded): COS(=O)(=O)c1ccc([N+](=O)[O-])cc1
Result: condition met

---

Label scheme for melting point: interval 1 (below 50 °C), interval 2 (50 °C to below 100 °C), interval 3 (100 °C or more)

Task: Consider OCC1CC1 . To which melting point class does it belong?
Result: interval 1

Task: Consider N#Cc1ccccc1OCC(O)CNCCNC(=O)Cc1ccc(O)cc1 (stereo unspecified) . To which melting point class does it belong?
Result: interval 3

Task: Consider O=C(O)c1cnccc1C(F)(F)F . To which melting point class does it belong?
Result: interval 3

Task: Consider O=C(O)C(O)(C(F)(F)F)C(F)(F)F . To which melting point class does it belong?
Result: interval 2

Task: Consider C=CC(=O)OCC(C)C . To which melting point class does it belong?
Result: interval 1

Task: Consider CCCCCCCCCCCCCCCC(C)CC (stereo unspecified) . To which melting point class does it belong?
Result: interval 1

Task: Consider COc1ccc(C(O)(c2ccc(OC)cc2)c2ccc(OC)cc2)cc1 . To which melting point class does it belong?
Result: interval 2

Task: Consider NC(=O)N1c2ccccc2C=Cc2ccccc21 . To which melting point class does it belong?
Result: interval 3

Task: Consider O=[N+]([O-])c1cc([N+](=O)[O-])c(Cl)c(C(F)(F)F)c1 . To which melting point class does it belong?
Result: interval 2

Task: Consider Cc1cccc2ccoc12 . To which melting point class does it belong?
Result: interval 3

Task: Consider Cn1c(=O)c(C2=NNC(=O)C2=NNc2ccc(Br)cc2)c(O)c2ccccc21 . To which melting point class does it belong?
Result: interval 3

Task: Consider Cc1cc(C)ncn1 . To which melting point class does it belong?
Result: interval 1

Task: Consider CC(=O)Nc1cccc(C(C)=O)c1 . To which melting point class does it belong?
Result: interval 3

The measurements presented in this section are drawn from a melting point compilation (Tetko et al.).
